This section presents molecules with their documented pIC50 values.
System: HepG2
Assay text: Antitumor activity against human HepG2 cells assessed as inhibition of cell viability by MTT assay
Format: functional, cell-based
Lab note — pIC50 values are minus log10 of concentrations in M.

{"columns": ["Smiles data", "pIC50"],
 "data": [
  ["CC(C)(C)c1cc(NC(=O)CN2CCN(Cc3ccccc3)CC2)no1", 4.24]
]}

Shift focus to the following entry.
Query string: Record lookup: for HepG2, what pIC50 belongs to Cc1cc(NC(=O)CCl)no1 ?
Result string: 4.95

* * *

This section presents compounds with their documented logP values.
Assay text: Lipophilicity, logP of the compound
Type: physicochemical
Condition details: octanol/water

{"columns": ["Smiles data", "logP"],
 "data": [
  ["Cc1cc(NC(=O)CN2CCN(C)CC2)no1", 0.23]
]}

Query string: # get_value(readout='logP', item= CCN1CCN(CC(=O)Nc2cc(C(C)(C)C)on2)CC1 )
Result string: 2.33

Query string: # get_value(readout='logP', item= Cc1cc(NC2=NC(=O)/C(=C\c3ccc4ccccc4c3)S2)no1 )
Result string: 4.16

Query string: # get_value(readout='logP', item= Cc1cc(NC2=NC(=O)CS2)no1 )
Result string: 0.24

Query string: # get_value(readout='logP', item= Cc1cc(NC2=NC(=O)/C(=C\c3ccc(Br)cc3)S2)no1 )
Result string: 3.79

Query string: # get_value(readout='logP', item= Cc1ccc(/C=C2/SC(Nc3cc(C)on3)=NC2=O)cc1 )
Result string: 3.43
